- Tested on: MS2 coat protein
- Experiment: apparent KD of MS2 coat protein; designed switch direction (-1 OFF switch, 1 ON switch): 1; higher = weaker reporter binding
- Conditions: Eterna round: R95; input ligand: FMN 200 uM
Classification field: enter class 1 for apparent KD of MS2 coat protein values not below 30 nM, class 0 for values below it.

{"columns": ["Input Sequence", "Category"],
 "data": [
  ["AUAAGUUCGAUGCUCGUCUCUCCGUACAAACAUGAGGAUCACCCAUGUGACUGGGCAAUAGCCCAAUCAGUAUGGCC [Beongetiqu] (puzzle: Sensor for hsa-mir-208a)", "class 1"],
  ["AACAAUCUAUCUGAGGAUAUCAUGAAAUAAACAUGAGGAUCACCCAUGUGCAGGAAAACUGCUUAUGAGAAGGCAGAUAGAUUGA [salish99_ss2_r3_047] (puzzle: Same State 2)", "class 0"],
  ["UUGCGCUGUCGAGAGGAUAUGCGGUGAUGGACAUGAGGAUCACCCAUGUUAGCGAUAGCAUUACGGUAGAAGGCUCUUCAGCUGC [salish99_ss2_r3_095] (puzzle: Same State 2)", "class 0"],
  ["GAGGCACAUGAGGAUCACCCAUGUGGGCGGAACAUAGGAUAUCGCCAACAAUAAGCCCGGUGAGAAGGAUGAUGCC [Lexereat] (puzzle: Same State 1)", "class 1"],
  ["AAGAAUCUAUCUCAGGAUAUCAUGUCAAAGACAUGAGGAUCACCCAUGUACCAGGAAACUGGUUAUGAGAAGGGAGAUAGAUUCU [Mat - Same State 2 - Mod - D32] (puzzle: Same State 2)", "class 1"],
  ["CGUAGGUAGCUGGAGGAUAUCCGAGUGGUAACAUGAGGAUCACCCAUGUGAUGUGAGGAACAUGAGGAGAAGGCUAGCUGCCUGC [JL-ss2-3.12 JL mod] (puzzle: Same State 2)", "class 0"],
  ["GGCACAAAAGCACAGGAUAUGCAAAAGAACACAUGAGGAUCACCCAUGUAGCCUAAUAAAGGGCAGCAGAAGGGUGGGACUGCCA [Quaat] (puzzle: Same State 2)", "class 1"],
  ["GGGCAGAGGGACAAGGAUAUGUCAGGAGAGACAUGAGGAUCACCCAUGUGGAGGUUGGAGCAGAGACAGAAGGUGUACGGAGCGA [JR_SS2_Sub011] (puzzle: Same State 2)", "class 1"],
  ["AUAAGUUUGAUGCUCGUCUCUCCGUACAAACAUGAGGAUCACCCAUGUGGUCGGGAAGUAGCCCGGCCAGUAUGACC [Rigebelain] (puzzle: Sensor for hsa-mir-208a)", "class 1"],
  ["GUGGCACAUGAGGAUCACCCAUGUGGGUAGAACAUAGGAUAUCACCAACAAAAUACCCGGUGAGAAGGAUGAUGCC [Esanesdi] (puzzle: Same State 1)", "class 1"],
  ["AUAAAACAUGAGGAUCACCCAUGUCUCUAAAGUCGAGGAUAUGGGCAAAUAAUAUAAGAACCAGAAGGCGAAUAAU [SS1 Teenbexe 3] (puzzle: Same State 1)", "class 1"],
  ["AUGGUGCAGGUACAGGAUAUGUUGCUCGUAACAUGAGGAUCACCCAUGUACCUAUGAGAUUAAAUGCAGAAGGGUGCACACCACA [Mat - Same State 2 - Mod of UCT - D88] (puzzle: Same State 2)", "class 1"],
  ["AGUCCAGCCUGAGCUGGACAAAAGCAUGUACAUGAGGAUCACCCAUGUUCAUGUACAAGCUUUUUGCUCGUCAUAAA [Mat - hsa-mir-208a - Mod of JL - 51] (puzzle: Sensor for hsa-mir-208a)", "class 1"],
  ["GGAGCCGGCACUGAGGAUAUUCAUAAUAAAACAUGAGGAUCACCCAUGUAGGCCAGAAGGCCUUGGGAGAAGGCAGGUCGGCUCA [Mat - Same State 2 - Mod of UCT - D66] (puzzle: Same State 2)", "class 0"],
  ["GACCAACAUGAGGAUCACCCAUGUUUCUGAGGCACAGGAUAUCGACAGGCAAGACACCUGCGAGAAGGGUGACCUC [Same State 1 - Mod of Vinnie Diatater v.3] (puzzle: Same State 1)", "class 1"],
  ["GGAGGGAGGGCGCAGGAUAUCGAUAAUGACACAUGAGGAUCACCCAUGUUUGGUAUUAGAAGGAACGAGAAGGGUGAGAGGAGGG [red_knee_arm] (puzzle: Same State 2)", "class 1"],
  ["GAGGGAUGAGCGUAGGAUAUAGGAGGAGUGACAUGAGGAUCACCCAUGUGGUAUGAGGGAGGAUUCUAGAAGGACGCGGUAGAAG [JR_SS2_Sub064] (puzzle: Same State 2)", "class 1"],
  ["AGUCCAGCAUGAGCUGGACAAAAGCAUGUACAUGAGGAUCACCCAUGUCAUGUACAAGCUUUUUGCUCGUCUUAAUA [Mat - hsa-mir-208a - Mod of JL - D35] (puzzle: Sensor for hsa-mir-208a)", "class 1"],
  ["ACAAGCUUUUCUGUAGUGAAAGGUGGGAUACAUGAGGAUCACCCAUGUAUUGUUGUCAAUAUUUGUCCUCGUCUUAU [JR_SHM208A_Sub086] (puzzle: Sensor for hsa-mir-208a)", "class 1"]
]}

====

- Tested on: MS2 coat protein
- Experiment: apparent KD of MS2 coat protein; designed switch direction (-1 OFF switch, 1 ON switch): -1; higher = weaker reporter binding
- Conditions: input ligand: FMN 200 uM
Collected apparent KD of MS2 coat protein values appear next to each entry.
Quantity Name: apparent KD of MS2 coat protein (nM)

{"columns": ["Input Sequence", "Study System", "Quantity Name", "Reported Measurement"],
 "data": [
  ["GUAAUUAAUGUAGGAUAUGCAAGGCGAACCUAAGCAGAAGGACAUGAGGAUCACCCAUGUAUUGCGGUCUGCGUUCAGUUCGCU [salish99_ExNG1_r4_011] (Eterna round: R96, puzzle: Exclusion NG 1)", "MS2 coat protein", "apparent KD of MS2 coat protein", 9.41],
  ["CCUGUGACGCAGGAUAUCGAGCACAAUGCAUGUUGAGAAGGGCGUACAUGAGGAUCACCCAUGUCUCACGUAGG [Eternabot (L1) Solution 53] (Eterna round: R97, puzzle: Exclusion 6)", "MS2 coat protein", "apparent KD of MS2 coat protein", 175],
  ["CCAGCAAAUGUAAGGAUAUGCUGGUCCUUGGAUCAGCAGAAGGUACAUGAGGAUCACCCAUGUAGGUAAGCUGG [Eli bmx4 4.63] (Eterna round: R97, puzzle: Brourd's mod of Exclusion 4)", "MS2 coat protein", "apparent KD of MS2 coat protein", 118],
  ["GCACCAUGGCUUACUAGCCGUUAAACAUGAGGAUCACCCAUGUAGGAUAUGGUCUGGAUUACAGGCCAGAAGGGCGUAAGGUGC [JL Eli 026 mod] (Eterna round: R96, puzzle: Exclusion NG 3)", "MS2 coat protein", "apparent KD of MS2 coat protein", 15.9],
  ["CAGUACUGAGGAUAUACAUGAGGAUCACCCAUGUGUUUUCUACUAGGAAACUAGGUAUGUAGAAGGCAGUACUG [Omei Ex3 Mod of Eli 4.27 v3] (Eterna round: R97, puzzle: Exclusion 3)", "MS2 coat protein", "apparent KD of MS2 coat protein", 194],
  ["GUAAACGAAGAGGAUAUUUGAUAUCAUAGCUUCAAAGAAGGCUUCACAUGAGGAUCACCCAUGUGAUCUUCAAA [Mat - Exclusion 6 - JL Mod - D22] (Eterna round: R97, puzzle: Exclusion 6)", "MS2 coat protein", "apparent KD of MS2 coat protein", 142],
  ["UGGAUAACAGGAUAUACAUGAGGAUCACCCAUGUUUCCGGACGGAGACGAAUCCUAGAGUAGAAGGGUUAUCCC [Eternabot (Original) Solution 17] (Eterna round: R97, puzzle: Exclusion 3)", "MS2 coat protein", "apparent KD of MS2 coat protein", 388],
  ["AAGCAUUGCCAAAGGUAGUGCUUUACAUGAGGAUCACCCAUGUAGGAUAUGGUAGGCAAAGCUUACCAGAAGGACAUGAUAAUU [Mat - Exclusion NG 3 - Mod of JL - D13] (Eterna round: R96, puzzle: Exclusion NG 3)", "MS2 coat protein", "apparent KD of MS2 coat protein", 151],
  ["ACAGCAUAGUUAGGAUAUUGCCGACACUGUGUGUUCCUACACAUGAGGAUCACCCAUGUGAAGCGCGAGAAGGAACUAACUGAA [Eternabot solution 8] (Eterna round: R96, puzzle: Exclusion NG 2)", "MS2 coat protein", "apparent KD of MS2 coat protein", 430]
]}

====

- Test system: MS2 coat protein
- Experiment: apparent KD of MS2 coat protein; higher = weaker reporter binding
- Conditions: Eterna round: R107; input ligand: arginine 13.2 mM
Classification field: enter label 1 for apparent KD of MS2 coat protein values not below 20 nM, label 0 for values below it.

{"columns": ["Input Sequence", "Category"],
 "data": [
  ["GCUAGGUCAUCGGCCGCCACUAACGAUGGCUCCGACAUGAGGAUCACCCAUGUGCCACUUGCGCAUAGGACCGGGAUGACCUAGC [SSTB NP+V+V2 #1]", "label 0"],
  ["AAAUAAUCUAGUCCACAAUGUGACUCAGAUACCAGUGCAAAGCUACACCCUUGGCAGCUGGUUACAUGAGGAUCACCCAUGUCGU [theeternabot_exclusion_MS2_Theo_A_50]", "label 1"],
  ["GGGCAAGAGGGAAGGAGCGUUAGCUGAGUCACAUGAGGAUCACCCAUGUCGCACGUAGUAUGACAGGUAGGUCGCCCUCUACCCU [SS-ArgB15]", "label 0"],
  ["GUGGGUUUGCGAAGGAGCGGGUAUGUUUUCUACUGGAUCCUAACAUGAGGAUCACCCAUGUCCCAGGUAGGUCGCGCGGGCUUGG [12.Z]", "label 1"],
  ["UACAUGAGGAUCACCCAUGUAAGGUGAGAUACCAGUGAUAUGCUACACCCUUGGCAGCUCACGGCUGACUAUCAGCACACAUGUA [Theo A SS t1]", "label 1"]
]}
